- measured.on: Short transient receptor potential channel 4 (Mus musculus)
- Sequence (Q9QUQ5 whole entry): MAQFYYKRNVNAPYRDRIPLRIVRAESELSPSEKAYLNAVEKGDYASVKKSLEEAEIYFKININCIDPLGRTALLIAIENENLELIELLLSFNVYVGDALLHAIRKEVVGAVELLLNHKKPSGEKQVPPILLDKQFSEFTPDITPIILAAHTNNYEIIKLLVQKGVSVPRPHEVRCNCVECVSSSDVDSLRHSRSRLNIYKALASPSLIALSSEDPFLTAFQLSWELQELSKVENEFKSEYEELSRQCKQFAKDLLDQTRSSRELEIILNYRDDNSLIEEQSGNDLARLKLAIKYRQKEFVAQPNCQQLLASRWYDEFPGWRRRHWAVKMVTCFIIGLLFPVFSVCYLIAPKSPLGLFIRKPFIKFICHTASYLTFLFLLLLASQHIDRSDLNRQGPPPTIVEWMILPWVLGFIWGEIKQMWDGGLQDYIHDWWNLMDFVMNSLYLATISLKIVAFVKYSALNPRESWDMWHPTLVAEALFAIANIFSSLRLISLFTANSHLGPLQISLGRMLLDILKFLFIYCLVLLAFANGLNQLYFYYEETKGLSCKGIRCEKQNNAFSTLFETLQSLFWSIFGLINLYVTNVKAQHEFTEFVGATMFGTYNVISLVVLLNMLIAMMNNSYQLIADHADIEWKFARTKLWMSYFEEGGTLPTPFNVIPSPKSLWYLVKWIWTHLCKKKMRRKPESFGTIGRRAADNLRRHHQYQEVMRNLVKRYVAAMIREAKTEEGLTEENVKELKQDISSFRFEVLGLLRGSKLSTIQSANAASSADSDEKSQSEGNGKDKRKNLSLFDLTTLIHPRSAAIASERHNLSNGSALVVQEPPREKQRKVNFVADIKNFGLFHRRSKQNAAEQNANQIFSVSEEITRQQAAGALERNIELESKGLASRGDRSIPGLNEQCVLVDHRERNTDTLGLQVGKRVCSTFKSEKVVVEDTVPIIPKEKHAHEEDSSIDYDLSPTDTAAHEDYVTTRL
- procedure.details: mouse TRPC4 channel inhibitors, dose response, cell-based, HEK293 TRPC4/mu-opioid, Fluo-4 calcium (AID 434942);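 also: potency of inhibitors blocking the TRPC4 calcium response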
- Type: functional
Calls of active or inactive are those of the source.
Property: EC50; scope: individual compounds
metric.name: EC50

>>> obs_value("Cc1ccc(OCC(COCc2ccccc2)NC(C)C)cc1 (configuration not stated)")
"3.76 µM (active)"
>>> obs_value("Cc1cc([N+](=O)[O-])ccc1NCc1ccccc1")
"0.841 µM (active)"
>>> obs_value("CCCn1c(NC(=O)c2ccc(Cl)c(S(=O)(=O)N3CCCC3)c2)nc2ccccc21")
"1.06 µM (active)"
>>> obs_value("COc1ccc(C2=NN(C(=O)c3ccccc3)C(c3ccc(OC)c(OC)c3)C2)c(O)c1 (configuration not stated)")
"9.44 µM (active)"
>>> obs_value("CCN(CC)CCN(C(=O)c1ccccc1OC)c1nc2ccc(F)cc2s1")
"2.11 µM (active)"
>>> obs_value("CN(C)C(CNC(=O)CCc1nc2ccccc2s1)c1ccccc1 (configuration not stated)")
"0.0187 µM (active)"
>>> obs_value("Cc1cc(CN2CCCC(C(=O)Nc3ccc(-c4nc5ccccc5[nH]4)cc3)C2)n[nH]1 (configuration not stated)")
"0.0003 µM (active)"

---

- procedure.details: cytotoxicity toward NIH3T3 fibroblasts, dose response, counter-screen, cell-based, ATP luminescence, mouse fibroblasts (AID 2010);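 also: cells exposed to compound for about 90 hours before reading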
- Format: functional
Calls of active or inactive are those of the source.
metric.name: EC50

>>> obs_value("Cc1cnccc1CN(C)Cc1cn(C)nc1-c1ccc(Oc2ccccc2)cc1")
"> 30 µM (not active)"
>>> obs_value("Oc1nc(-c2ccccn2)nc(C(F)(F)F)c1Br")
"10.9 µM (active)"
>>> obs_value("CCC[n+]1c2ccccc2cc2ccccc21")
"> 60 µM (not active)"
>>> obs_value("COc1ccc(OC)c(C2C=C(C34CC5CC(CC(C5)C3)C4)N=C(S)N2)c1 (configuration not stated)")
"> 30 µM (not active)"
>>> obs_value("O=C(Oc1c(Cl)cc(Cl)c2cccnc12)c1cccs1")
"9.43 µM (active)"
>>> obs_value("c1ccc(-c2nc(N3CCN(c4ccccc4)CC3)nc(-n3ccnc3)n2)cc1")
"> 60 µM (not active)"
>>> obs_value("COc1ccc(N=C(C)N(C)CCNS(=O)(=O)c2ccc(Cl)cc2)cc1Cl")
"> 60 µM (not active)"

---

Property: IC50; scope: individual compounds
- measured.on: UniProt:P11940
- Sequence (P11940 whole entry): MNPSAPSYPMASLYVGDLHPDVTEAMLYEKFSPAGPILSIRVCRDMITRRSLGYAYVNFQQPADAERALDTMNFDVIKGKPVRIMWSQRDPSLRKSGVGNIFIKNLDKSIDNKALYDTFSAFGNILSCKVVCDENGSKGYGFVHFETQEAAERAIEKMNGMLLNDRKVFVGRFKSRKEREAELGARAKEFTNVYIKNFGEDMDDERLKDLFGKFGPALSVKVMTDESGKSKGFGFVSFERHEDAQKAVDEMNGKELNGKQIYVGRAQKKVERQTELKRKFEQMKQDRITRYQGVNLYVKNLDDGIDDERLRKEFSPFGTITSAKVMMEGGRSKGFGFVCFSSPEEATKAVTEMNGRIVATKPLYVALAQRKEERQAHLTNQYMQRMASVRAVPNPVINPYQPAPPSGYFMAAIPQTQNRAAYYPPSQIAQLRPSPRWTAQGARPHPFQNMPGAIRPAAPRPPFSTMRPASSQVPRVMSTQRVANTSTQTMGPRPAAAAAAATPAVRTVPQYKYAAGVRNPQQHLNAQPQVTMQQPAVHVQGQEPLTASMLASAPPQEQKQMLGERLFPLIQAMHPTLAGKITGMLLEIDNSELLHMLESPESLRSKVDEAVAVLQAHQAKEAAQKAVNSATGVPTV
- procedure.details: PABP1 MLLE–PAM2 binding inhibitor potency, dose response, biochemical, fluorescence polarization, FITC-PAM2 peptide (AID 602259)
- Assay type: functional
- condition.details: read-out: IC50_Mean
Active and inactive are the calls of the source.
metric.name: IC50

>>> obs_value("Fc1cccc(NC(=S)Nc2cccnc2)c1")
"> 66 µM (inactive)"
>>> obs_value("CCCCCCC1NC(C(=O)O)CS1 (stereo not drawn)")
"> 66 µM (inactive)"
>>> obs_value("COc1cc(/C=C2/C(=O)ON=C2C)ccc1OCc1cccc(F)c1")
"42.6 µM (inactive)"

---

- measured.on: Type-1 angiotensin II receptor (Homo sapiens, UniProt P30556)
- Sequence (P30556 whole entry): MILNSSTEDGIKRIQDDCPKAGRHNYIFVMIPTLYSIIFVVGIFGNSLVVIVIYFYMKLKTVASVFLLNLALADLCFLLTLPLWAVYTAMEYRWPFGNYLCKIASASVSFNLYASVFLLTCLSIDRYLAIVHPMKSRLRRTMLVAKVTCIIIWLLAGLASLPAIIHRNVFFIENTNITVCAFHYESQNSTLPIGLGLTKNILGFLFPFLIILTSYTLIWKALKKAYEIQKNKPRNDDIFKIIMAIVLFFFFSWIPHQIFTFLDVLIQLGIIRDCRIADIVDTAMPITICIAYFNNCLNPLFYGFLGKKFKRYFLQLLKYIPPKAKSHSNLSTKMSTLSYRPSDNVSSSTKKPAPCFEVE
- procedure.details: AT1 receptor antagonists, dose response, selectivity assay for APJ receptor antagonist project, cell-based, uHTS hits (AID 463214);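 also: antagonist potency against angiotensin II stimulated AT1 response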
- Type: functional
Calls of active or inactive are those of the source.
Property: IC50; scope: individual compounds
metric.name: IC50

>>> obs_value("N#CC(C#N)=CC1=C2OC(c3ccccc3)=CC(c3ccccc3)=C2CCC1")
"> 40 µM (not active)"
>>> obs_value("COc1ccccc1NCC(=O)c1ccc(Cl)cc1")
"35.3 µM (not active)"
>>> obs_value("CC(=O)OCCCNc1cc(Sc2nc3ccccc3s2)c2nonc2c1[N+](=O)[O-]")
"2.06 µM (active)"
